B1: ZNF263 (parent)
chain: VPGTQVGQGGKLWDPSVQSCKEGL

Variants of: B1
Experiment: protein stability index of a GFP-peptide fusion (GPS, HEK-293T) (PSI 1-6); higher = more stable;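 further: lentivirally expressed fusions sorted by FACS into six bins by GFP to DsRed ratio, PSI derived from sequencing read proportions per bin multiplied by bin number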
Conditions: c terminus: a fixed tail appended
// protein stability index lookup, one value per entry

Change | protein stability index
L12M | 4.07
V1R | 4.08
P2V | 4.01
V17Y | 4.1
D14H | 4.08
